Taken from patent US20250333501A1.

Molecular target: T1, human CLDN6 fused to GFP, expressed on engineered HEK293T cells (HEK293T-CLDN6-mGFP) (human, UniProt P56747 1-220)
T1 construct: It calls residues 1-21 a signal peptide; also called Claudin-6; HEK293T-CLDN6-mGFP Artificial CLDN6+; not shown: mGFP tag
T1 sequence: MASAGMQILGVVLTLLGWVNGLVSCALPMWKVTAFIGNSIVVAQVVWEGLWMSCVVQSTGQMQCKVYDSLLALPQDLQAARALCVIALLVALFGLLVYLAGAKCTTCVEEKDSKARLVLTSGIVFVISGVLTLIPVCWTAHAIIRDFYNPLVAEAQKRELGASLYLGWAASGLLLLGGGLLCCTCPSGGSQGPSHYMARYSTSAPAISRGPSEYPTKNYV
Assay: FACS, AF647-labelled mAb, HEK293T-CLDN6-mGFP cells
pEC50: −log10 of the molar value.
Readout: pEC50

{"Binder": "AB10 (antibody, V domains shown, Labelled with Alexa Fluor 647 NHS ester for FACS) VH: QIQLVQSGPALKKPGETVKISCKASGYTFTDYSMHWIKQAPGKGLKWMGWISTETGEPTYADGFKGRFDFSLETSADTAYLSINNLTNEDTATYFCTRGLWSSFAYWGQGTLVTVSA VL: DVVMTQTPLSLPVSLGDQASISCRASQSLVHSNGNTYLHWFLQKPGQSPKLLIYKVSNRFSGVPDRFSGSGSRTDFTLKISRVEAEDLGVYFCSQITHVPYTFGGGTKLEIK", "Qualifying sign": "=", "Readout value": 5.56}
{"Binder": "AB18 (antibody, V domains shown, Labelled with Alexa Fluor 647 NHS ester for FACS) VH: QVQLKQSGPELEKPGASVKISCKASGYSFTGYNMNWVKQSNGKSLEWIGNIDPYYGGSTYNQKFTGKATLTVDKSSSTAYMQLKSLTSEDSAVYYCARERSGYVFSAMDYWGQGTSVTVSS VL: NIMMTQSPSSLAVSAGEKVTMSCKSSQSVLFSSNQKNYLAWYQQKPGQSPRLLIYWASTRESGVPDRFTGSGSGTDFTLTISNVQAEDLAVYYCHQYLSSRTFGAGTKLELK", "Qualifying sign": "≤", "Readout value": 5.30}
{"Binder": "AB7 (antibody, V domains shown, Labelled with Alexa Fluor 647 NHS ester for FACS) VH: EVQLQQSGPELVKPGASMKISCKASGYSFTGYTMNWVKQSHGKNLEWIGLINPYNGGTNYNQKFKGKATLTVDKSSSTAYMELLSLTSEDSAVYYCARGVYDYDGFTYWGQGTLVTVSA VL: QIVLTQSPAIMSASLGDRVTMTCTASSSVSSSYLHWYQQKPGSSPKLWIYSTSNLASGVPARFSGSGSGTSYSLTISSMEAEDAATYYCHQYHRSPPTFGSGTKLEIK", "Qualifying sign": "=", "Readout value": 6.24}
